Biological target: MerTK (Homo sapiens, UniProt Q12866)
Construct: Seed HUVECs (10K cells/well) in EBM-2 complete media
Sequence (Q12866 21-999): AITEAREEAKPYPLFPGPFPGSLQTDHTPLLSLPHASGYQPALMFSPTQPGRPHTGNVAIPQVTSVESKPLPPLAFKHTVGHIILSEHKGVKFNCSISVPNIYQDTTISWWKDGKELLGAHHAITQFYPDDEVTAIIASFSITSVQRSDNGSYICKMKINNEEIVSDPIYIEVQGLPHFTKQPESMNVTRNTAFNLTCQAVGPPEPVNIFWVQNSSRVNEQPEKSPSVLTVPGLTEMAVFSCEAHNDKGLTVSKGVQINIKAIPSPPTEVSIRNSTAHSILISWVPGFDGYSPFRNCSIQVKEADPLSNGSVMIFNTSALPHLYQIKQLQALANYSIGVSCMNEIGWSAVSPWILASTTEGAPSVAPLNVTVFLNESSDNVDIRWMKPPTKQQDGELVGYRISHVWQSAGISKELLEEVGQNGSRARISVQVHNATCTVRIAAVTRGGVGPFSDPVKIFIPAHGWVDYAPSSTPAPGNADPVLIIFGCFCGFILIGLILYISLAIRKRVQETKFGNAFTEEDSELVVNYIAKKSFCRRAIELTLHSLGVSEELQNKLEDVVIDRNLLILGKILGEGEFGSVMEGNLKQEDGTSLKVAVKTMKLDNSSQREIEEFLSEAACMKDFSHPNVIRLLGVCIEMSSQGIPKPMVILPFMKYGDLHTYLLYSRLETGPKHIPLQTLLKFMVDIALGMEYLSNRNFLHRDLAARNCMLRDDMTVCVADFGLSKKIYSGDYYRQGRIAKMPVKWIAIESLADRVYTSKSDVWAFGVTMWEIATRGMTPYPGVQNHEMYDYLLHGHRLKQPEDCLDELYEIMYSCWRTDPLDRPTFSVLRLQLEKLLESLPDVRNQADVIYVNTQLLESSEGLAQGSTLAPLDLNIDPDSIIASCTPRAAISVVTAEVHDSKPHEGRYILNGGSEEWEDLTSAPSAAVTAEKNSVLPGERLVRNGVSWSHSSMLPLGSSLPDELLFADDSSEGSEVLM
Assay: PAKT HTRF-HUVEC assay (pAkt Ser473 HTRF after anti-human MerTK-XL stimulation)
Conditions: HUVEC cells, 1 hour compound, stimulated with anti-human MerTK-XL 1 ug/mL for 10 minutes, read-out: inhibition of MerTK
pEC50: −log10 of the molar value.
Result Type: pEC50

Consider the following illustrative entries.
[
  {
    "Compound": "CCCCNc1ncc2c3ccc(CN4CCNCC4)cc3c(=O)n([C@H]3CC[C@H](O)CC3)c2n1 [Compound 44]",
    "pEC50": 7.18
  },
  {
    "Compound": "CN1CCN(Cc2ccc3c(c2)c(=O)n([C@H]2CC[C@H](N)CC2)c2nc(NCC4CC4)ncc32)CC1 [Compound 185]",
    "pEC50": 7.54
  },
  {
    "Compound": "O=c1c2cc(OCCCN3CCOCC3)ccc2c2cnc(NCC3CC3)nc2n1[C@H]1CC[C@H](O)CC1 [Compound 208]",
    "pEC50": 6.38
  }
]

A: O=c1c2cc(N3CCN(CC(F)(F)F)CC3)ccc2c2cnc(NCC3CC3)nc2n1[C@H]1CC[C@H](O)CC1 [Compound 104]
B: CC1(O)CCN(Cc2ccc3c(c2)c(=O)n(C2CCC(O)CC2)c2nc(NCC4CC4)ncc32)CC1 (stereo not shown) [Compound 145]
C: CCCCNc1ncc2c3ccc(N4CC5(COC5)C4)cc3c(=O)n([C@H]3CC[C@H](O)CC3)c2n1 [Compound 68]
D: O=c1c2cc(CN3CC[N+]4([O-])CCC3CC4)ccc2c2cnc(NCC3CC3)nc2n1[C@H]1CC[C@H](O)CC1 [Compound 162]
Ordering criterion: pEC50; begin with the maximum. // ordering of labels required in reply
B, C, A, D
